Assay: Tmax in rat at 3 mg/kg, po administered as single dose by LC/MS/MS analysis
Type: ADME, organism-based
Conditions: in vivo
Quantity name: Tmax (h)
Give bare numbers, in h.

Record CCOC(=O)N1CC/C(=C\C#Cc2cccc(C)n2)C1 , field Tmax: 1

* * *

Molecular target: Sodium channel protein type 5 subunit alpha (Homo sapiens, UniProt Q14524)
Sequence (Q14524 whole entry): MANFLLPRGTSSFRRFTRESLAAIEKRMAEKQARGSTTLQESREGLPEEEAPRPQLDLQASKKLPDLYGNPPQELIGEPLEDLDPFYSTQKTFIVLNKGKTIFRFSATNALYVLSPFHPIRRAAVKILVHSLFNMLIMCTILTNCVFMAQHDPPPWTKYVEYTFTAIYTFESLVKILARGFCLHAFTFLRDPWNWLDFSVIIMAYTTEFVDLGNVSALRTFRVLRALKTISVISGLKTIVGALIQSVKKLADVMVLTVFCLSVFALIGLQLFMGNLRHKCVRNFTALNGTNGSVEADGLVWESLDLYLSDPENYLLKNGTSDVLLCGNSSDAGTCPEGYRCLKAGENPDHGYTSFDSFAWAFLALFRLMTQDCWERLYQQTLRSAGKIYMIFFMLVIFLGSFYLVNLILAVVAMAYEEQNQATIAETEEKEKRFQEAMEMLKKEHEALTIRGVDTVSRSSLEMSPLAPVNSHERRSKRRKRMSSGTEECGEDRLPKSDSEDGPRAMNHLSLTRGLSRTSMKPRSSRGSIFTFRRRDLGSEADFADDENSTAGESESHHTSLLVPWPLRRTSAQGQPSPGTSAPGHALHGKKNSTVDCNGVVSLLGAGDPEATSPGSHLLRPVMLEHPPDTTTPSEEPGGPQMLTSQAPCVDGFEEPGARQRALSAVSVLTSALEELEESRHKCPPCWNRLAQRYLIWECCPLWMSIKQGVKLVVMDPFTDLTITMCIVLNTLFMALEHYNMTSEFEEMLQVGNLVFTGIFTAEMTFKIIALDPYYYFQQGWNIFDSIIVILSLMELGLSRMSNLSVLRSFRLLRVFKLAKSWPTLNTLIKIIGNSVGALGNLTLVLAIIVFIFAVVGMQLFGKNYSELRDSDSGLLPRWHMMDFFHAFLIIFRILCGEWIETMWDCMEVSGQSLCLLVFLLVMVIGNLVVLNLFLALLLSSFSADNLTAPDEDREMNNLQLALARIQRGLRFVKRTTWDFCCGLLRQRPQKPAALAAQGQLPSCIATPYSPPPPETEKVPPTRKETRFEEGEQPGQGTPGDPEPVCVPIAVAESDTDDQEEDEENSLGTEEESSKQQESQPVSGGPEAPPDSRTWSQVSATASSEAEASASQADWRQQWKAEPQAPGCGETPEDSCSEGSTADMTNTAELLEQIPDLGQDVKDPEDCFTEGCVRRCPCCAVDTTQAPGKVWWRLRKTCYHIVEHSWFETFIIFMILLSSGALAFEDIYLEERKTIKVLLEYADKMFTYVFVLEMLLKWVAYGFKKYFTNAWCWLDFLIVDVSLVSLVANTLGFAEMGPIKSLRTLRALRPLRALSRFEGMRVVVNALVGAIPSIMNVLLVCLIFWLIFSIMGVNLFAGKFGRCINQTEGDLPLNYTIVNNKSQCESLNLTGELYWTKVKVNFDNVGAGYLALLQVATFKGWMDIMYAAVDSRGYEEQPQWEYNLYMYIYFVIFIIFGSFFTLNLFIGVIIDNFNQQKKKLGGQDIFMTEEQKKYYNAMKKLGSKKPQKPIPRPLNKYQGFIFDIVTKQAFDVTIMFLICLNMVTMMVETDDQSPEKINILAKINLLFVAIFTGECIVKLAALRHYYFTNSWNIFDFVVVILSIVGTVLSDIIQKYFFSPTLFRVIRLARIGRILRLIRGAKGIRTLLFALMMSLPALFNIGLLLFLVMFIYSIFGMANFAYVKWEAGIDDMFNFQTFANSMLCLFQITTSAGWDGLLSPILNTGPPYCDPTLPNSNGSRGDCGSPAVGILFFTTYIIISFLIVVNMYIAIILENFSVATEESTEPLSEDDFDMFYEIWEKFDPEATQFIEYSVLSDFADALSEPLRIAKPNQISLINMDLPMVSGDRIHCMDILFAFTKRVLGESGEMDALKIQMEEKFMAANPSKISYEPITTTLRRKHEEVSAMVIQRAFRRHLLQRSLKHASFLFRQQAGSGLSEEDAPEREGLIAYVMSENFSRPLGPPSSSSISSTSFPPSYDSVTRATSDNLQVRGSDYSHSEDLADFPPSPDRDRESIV
Assay: Inhibition of NaV1.5 (unknown origin)
Quantity name: pIC50
Numbers only, as −log10 of the molar value.

pIC50 value, target or system Sodium channel protein type 5 subunit alpha (Homo sapiens, UniProt Q14524), for CCOC(=O)N1CC/C(=C\C#Cc2cccc(C)n2)C1 : 4.91
